target: Alpha-2A adrenergic receptor (Homo sapiens, UniProt P08913)
Sequence (P08913 whole entry): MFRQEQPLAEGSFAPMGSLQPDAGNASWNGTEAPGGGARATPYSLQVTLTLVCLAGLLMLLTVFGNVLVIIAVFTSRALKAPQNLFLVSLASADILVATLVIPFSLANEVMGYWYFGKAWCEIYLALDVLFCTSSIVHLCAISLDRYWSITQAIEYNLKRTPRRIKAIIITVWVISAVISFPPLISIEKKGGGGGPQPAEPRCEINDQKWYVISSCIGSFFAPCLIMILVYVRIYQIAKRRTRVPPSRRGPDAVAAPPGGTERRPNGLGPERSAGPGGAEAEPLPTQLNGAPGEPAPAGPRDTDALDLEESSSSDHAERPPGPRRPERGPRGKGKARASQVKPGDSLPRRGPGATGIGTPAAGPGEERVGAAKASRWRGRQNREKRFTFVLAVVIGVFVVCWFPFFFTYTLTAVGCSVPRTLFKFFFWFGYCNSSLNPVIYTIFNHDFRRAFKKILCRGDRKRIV
protocol details: Binding affinity against Alpha-2A adrenergic receptor
pKi: −log10 of the molar value.
Listed next: entries and their corresponding pKi.

molecular string | pKi
Cn1cc(C(=O)C(=O)N[C@H]2CN3CCC2CC3)c2ccccc21 | 5.10
Cn1cc(C(=O)C(=O)N[C@@H]2CN3CCC2CC3)c2ccccc21 | 4.50

----------
# collection of pKi values tested on Beta-1 adrenergic receptor (Homo sapiens)
# Sequence (P08588 whole entry): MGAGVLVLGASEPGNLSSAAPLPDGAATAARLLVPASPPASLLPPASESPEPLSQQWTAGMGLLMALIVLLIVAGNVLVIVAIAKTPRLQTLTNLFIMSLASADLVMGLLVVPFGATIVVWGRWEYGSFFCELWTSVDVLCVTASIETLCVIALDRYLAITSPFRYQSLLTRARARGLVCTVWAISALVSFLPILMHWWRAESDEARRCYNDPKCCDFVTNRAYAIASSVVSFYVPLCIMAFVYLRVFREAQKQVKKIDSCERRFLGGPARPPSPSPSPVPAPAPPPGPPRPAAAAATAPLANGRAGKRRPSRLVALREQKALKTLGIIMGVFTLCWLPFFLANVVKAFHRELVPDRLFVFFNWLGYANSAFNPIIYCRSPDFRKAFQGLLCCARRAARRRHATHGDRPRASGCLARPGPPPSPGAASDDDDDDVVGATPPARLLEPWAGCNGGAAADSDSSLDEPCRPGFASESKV
pKi: −log10 of the molar value.
assay endpoint: pKi

molecular string | target | observed value
Cn1cc(C(=O)C(=O)N[C@@H]2CN3CCC2CC3)c2ccccc21 | Beta-1 adrenergic receptor (Homo sapiens) | < 4.00
Cn1cc(C(=O)C(=O)N[C@H]2CN3CCC2CC3)c2ccccc21 | Beta-1 adrenergic receptor (Homo sapiens) | < 5.00

----------
target: 5-hydroxytryptamine receptor 4 (Homo sapiens, UniProt Q13639)
Sequence (Q13639 whole entry): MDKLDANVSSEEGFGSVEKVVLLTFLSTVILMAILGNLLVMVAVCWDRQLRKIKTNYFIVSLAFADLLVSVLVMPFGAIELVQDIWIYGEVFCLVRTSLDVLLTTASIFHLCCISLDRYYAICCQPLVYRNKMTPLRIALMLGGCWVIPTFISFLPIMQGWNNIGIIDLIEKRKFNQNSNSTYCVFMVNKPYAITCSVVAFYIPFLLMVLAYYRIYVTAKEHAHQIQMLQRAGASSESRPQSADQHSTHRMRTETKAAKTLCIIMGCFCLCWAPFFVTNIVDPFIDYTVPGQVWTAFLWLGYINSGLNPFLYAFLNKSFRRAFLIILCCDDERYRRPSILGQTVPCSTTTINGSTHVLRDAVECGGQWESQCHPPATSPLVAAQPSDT
protocol details: Binding affinity against 5-hydroxytryptamine 4 receptor
pKi: −log10 of the molar value.
assay endpoint: pKi

molecular string | target | observed value
Cn1cc(C(=O)C(=O)N[C@H]2CN3CCC2CC3)c2ccccc21 | 5-hydroxytryptamine receptor 4 (Homo sapiens, UniProt Q13639) | 6.60

----------
Listed next: entries and their corresponding pKi.
target: Serotonin 3 (5-HT3) receptor (Rattus norvegicus, UniProt P35563+Q9JJ16)
Sequence (P35563 whole entry): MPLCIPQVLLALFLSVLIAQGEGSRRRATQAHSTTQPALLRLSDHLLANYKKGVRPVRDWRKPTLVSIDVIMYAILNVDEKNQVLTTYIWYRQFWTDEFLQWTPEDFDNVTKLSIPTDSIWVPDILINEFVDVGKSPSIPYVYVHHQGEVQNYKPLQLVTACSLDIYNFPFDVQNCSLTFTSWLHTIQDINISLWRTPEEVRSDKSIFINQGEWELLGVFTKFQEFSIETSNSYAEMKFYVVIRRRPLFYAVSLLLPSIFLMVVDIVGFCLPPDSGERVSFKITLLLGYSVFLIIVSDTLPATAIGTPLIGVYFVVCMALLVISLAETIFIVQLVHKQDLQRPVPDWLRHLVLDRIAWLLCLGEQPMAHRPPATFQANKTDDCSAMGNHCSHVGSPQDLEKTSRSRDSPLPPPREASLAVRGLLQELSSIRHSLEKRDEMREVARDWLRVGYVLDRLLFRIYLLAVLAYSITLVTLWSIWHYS
Sequence (Q9JJ16 whole entry): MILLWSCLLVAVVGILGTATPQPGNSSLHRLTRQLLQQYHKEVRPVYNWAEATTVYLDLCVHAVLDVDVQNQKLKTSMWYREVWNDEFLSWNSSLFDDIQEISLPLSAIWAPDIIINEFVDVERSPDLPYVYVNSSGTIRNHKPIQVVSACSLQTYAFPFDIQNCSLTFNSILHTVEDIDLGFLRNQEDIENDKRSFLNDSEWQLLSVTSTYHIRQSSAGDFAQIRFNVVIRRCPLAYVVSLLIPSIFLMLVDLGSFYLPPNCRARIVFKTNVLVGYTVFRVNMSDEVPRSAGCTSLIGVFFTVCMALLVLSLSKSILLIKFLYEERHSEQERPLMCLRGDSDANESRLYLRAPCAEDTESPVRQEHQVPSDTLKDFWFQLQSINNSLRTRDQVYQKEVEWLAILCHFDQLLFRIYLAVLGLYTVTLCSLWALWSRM
protocol details: Binding affinity against 5-Hydroxytryptamine 3 receptor
pKi: −log10 of the molar value.

molecular string | pKi
Cn1cc(C(=O)C(=O)N[C@@H]2CN3CCC2CC3)c2ccccc21 | 7.90
Cn1cc(C(=O)C(=O)N[C@H]2CN3CCC2CC3)c2ccccc21 | 9.60

----------
pKi: −log10 of the molar value.
# collection of pKi values tested on 5-hydroxytryptamine receptor 2C (Homo sapiens, UniProt P28335)
# Sequence (P28335 whole entry): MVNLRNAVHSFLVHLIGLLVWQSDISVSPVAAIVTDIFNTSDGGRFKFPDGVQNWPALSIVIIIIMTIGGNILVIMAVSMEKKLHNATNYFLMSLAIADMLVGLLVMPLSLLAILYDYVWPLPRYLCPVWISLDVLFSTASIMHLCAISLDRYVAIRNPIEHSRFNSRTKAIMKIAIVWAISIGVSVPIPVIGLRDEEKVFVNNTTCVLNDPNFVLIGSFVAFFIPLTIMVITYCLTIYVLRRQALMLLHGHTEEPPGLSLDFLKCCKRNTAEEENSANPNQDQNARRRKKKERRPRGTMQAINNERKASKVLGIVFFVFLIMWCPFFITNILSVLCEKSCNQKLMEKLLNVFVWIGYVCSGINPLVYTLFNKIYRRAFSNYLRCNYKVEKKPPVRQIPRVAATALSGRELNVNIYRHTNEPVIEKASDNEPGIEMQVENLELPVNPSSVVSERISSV
assay endpoint: pKi

molecular string | observed value
Cn1cc(C(=O)C(=O)N[C@H]2CN3CCC2CC3)c2ccccc21 | 4.80
Cn1cc(C(=O)C(=O)N[C@@H]2CN3CCC2CC3)c2ccccc21 | 4.90

----------
# collection of Ki values tested on 5-hydroxytryptamine receptor 1D (Homo sapiens)
# Sequence (P28221 whole entry): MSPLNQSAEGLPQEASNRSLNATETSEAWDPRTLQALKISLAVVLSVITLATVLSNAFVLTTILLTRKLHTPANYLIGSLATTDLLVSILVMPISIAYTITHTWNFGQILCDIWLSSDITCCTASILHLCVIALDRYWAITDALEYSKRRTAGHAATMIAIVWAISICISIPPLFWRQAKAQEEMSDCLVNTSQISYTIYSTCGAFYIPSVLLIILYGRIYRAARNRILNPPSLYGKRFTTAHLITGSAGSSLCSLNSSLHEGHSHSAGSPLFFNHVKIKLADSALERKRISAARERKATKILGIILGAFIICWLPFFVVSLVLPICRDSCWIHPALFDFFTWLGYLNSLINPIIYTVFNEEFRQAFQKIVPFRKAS

molecular string | target | qualifier operator | Ki / µM
Cn1cc(C(=O)C(=O)N[C@@H]2CN3CCC2CC3)c2ccccc21 | 5-hydroxytryptamine receptor 1D (Homo sapiens) | > | 100
Cn1cc(C(=O)C(=O)N[C@H]2CN3CCC2CC3)c2ccccc21 | 5-hydroxytryptamine receptor 1D (Homo sapiens) | = | 39.8

----------
Listed next: entries and their corresponding Ki.
target: 5-hydroxytryptamine receptor 2A (Homo sapiens)
Sequence (P28223 whole entry): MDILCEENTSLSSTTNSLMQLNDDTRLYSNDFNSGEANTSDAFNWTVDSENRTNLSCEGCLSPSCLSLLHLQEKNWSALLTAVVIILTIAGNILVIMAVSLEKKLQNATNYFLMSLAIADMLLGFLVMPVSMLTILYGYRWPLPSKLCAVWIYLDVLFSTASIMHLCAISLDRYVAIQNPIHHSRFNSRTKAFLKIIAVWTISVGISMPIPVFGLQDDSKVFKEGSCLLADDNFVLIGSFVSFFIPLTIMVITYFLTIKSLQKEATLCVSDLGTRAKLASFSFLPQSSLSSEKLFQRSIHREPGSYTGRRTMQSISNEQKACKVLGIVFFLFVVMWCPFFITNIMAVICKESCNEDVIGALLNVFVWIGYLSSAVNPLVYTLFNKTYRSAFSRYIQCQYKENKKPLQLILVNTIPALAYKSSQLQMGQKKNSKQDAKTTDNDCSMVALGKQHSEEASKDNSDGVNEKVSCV

molecular string | Ki
Cn1cc(C(=O)C(=O)N[C@@H]2CN3CCC2CC3)c2ccccc21 | 25.1 µM
Cn1cc(C(=O)C(=O)N[C@H]2CN3CCC2CC3)c2ccccc21 | 12.6 µM

----------
target: 5-hydroxytryptamine receptor 1A (Mus musculus, UniProt Q64264)
Sequence (Q64264 whole entry): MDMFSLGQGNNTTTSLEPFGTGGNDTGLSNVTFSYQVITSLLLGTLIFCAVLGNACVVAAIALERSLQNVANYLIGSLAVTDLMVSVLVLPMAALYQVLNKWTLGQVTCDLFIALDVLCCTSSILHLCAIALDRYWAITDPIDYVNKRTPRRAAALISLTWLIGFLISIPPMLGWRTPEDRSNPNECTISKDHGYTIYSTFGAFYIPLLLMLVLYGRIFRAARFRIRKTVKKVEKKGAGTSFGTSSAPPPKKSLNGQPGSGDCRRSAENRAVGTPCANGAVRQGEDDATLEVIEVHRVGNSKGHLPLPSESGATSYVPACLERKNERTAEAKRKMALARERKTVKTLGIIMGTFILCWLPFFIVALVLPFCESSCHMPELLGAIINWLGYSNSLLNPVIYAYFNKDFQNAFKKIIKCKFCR
Listed next: entries and their corresponding Ki.

molecular string | Ki
Cn1cc(C(=O)C(=O)N[C@@H]2CN3CCC2CC3)c2ccccc21 | > 100 µM
Cn1cc(C(=O)C(=O)N[C@H]2CN3CCC2CC3)c2ccccc21 | > 100 µM

----------
Listed next: entries and their corresponding pKi.
target: D(2) dopamine receptor (Homo sapiens, UniProt P14416)
Sequence (P14416 whole entry): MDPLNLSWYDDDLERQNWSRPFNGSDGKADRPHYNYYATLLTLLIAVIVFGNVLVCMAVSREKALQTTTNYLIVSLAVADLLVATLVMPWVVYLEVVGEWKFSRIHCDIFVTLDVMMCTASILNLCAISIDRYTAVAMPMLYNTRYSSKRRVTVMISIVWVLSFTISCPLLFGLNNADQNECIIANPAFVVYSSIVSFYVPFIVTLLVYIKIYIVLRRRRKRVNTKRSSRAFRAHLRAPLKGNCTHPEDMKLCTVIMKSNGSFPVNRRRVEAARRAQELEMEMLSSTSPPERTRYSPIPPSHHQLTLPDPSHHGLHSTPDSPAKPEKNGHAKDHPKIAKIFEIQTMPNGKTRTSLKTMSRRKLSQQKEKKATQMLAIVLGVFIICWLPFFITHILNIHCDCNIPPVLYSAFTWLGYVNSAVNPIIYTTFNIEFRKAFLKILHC
protocol details: Binding affinity against Dopamine D2 receptor
pKi: −log10 of the molar value.
assay endpoint: pKi

molecular string | assay endpoint | observed value
Cn1cc(C(=O)C(=O)N[C@H]2CN3CCC2CC3)c2ccccc21 | pKi | < 4.00
Cn1cc(C(=O)C(=O)N[C@@H]2CN3CCC2CC3)c2ccccc21 | pKi | < 4.00
